Values were extracted from ChEMBL document CHEMBL1122770.

assay: Partition coefficient (logP); type: physicochemical; details: octanol/water; read-out: logP
quantity_measured: logP

CCOC(=O)/C=C(C)/C=C/CC(C)CCCC(C)(C)OC (stereo not given)	5.54
C=CCOC(=O)/C=C(C)/C=C/CC(C)CCCC(C)C (stereo not given)	6.73
COC(C)(C)CCCC(C)C/C=C/C(C)=C/C(=O)O (stereo not given)	4.79
CCNC(=O)/C=C(C)/C=C/CC(C)CCCC(C)C (stereo not given)	5.24
COC(=O)/C=C(C)/C=C/CC(C)CCCC(C)C (stereo not given)	6.2

* * *

test: Partition coefficient (logP); format: physicochemical; details: octanol/water; read-out: logP
quantity_measured: logP

Example results:
CCOC(=O)/C=C(C)/C=C/CC(C)CCC1OC1(C)C (stereo not drawn)	4.76
C=C(C)CCCC(C)C/C=C/C(C)=C/C(=O)OCC (stereo not drawn)	6.19
COC(C)(C)CCCC(C)C/C=C/C(C)=C/C(=O)NC(C)C (stereo not drawn)	4.45
COC(C)(C)CCCC(C)C/C=C/C(C)=C/C(=O)OC(C)(C)C (stereo not drawn)	6.36
CC(/C=C/CC(C)CCCC(C)C)=C\C(=O)SC(C)C (stereo not drawn)	8.39

(P) C=CCSC(=O)/C=C(C)/C=C/CC(C)CCCC(C)C (stereo not drawn)
(Q) CCNC(=O)/C=C(C)/C=C/CC(C)CCC=C(C)C (stereo not drawn)
Which item exceeds the other in logP, P or Q ? Your answer should be the label attached to the chosen record.
P

(1) CCOC(=O)/C=C(C)/C=C/CC(C)CCCC(C)(C)C (stereo not drawn)
(2) CCOC(=O)/C=C(C)/C=C/CC(C)CCC(=O)C(C)C (stereo not drawn)
Which is greater in logP, the first item 1 or the second item 2 ? Selection: enter the item's label.
1
(1: 7.15, 2: 4.3)
